System: human fetal lung fibroblast (MRC-5) cells
Assay: MRC5 toxicity assay
Type: cell-based
Conditions: 96-h incubation, mean of triplicate, read-out: Cytotoxicity IC50 on MRC-5 cells
readout_kind: pIC50
Expect pIC50 as a plain number equal to -log10 of the molar concentration.

[Q] For the molecule Cc1c(C)n(CC(O)(Cn2cncn2)c2ccc(Cl)cc2Cl)c2ccccc12 (centres unmarked) [Compound 11k] , what pIC50 is on record?
[A] 4.01

====

readout_kind: melting point

Consider the reported melting point for these molecules:
OC(Cn1ccnc1)(Cn1ccc2ccccc21)c1ccc(Br)cc1 (centres unmarked); 134 to 135 °C
OC(Cn1cncn1)(Cn1ccc2ccccc21)c1ccc(F)cc1 (centres unmarked) [Compound 11a]; 190 to 191 °C
OC(Cn1nccn1)(Cn1ccc2ccccc21)c1ccc(Cl)cc1Cl (centres unmarked) [Compound 11m]; 159 to 161 °C
OC(Cn1ccnc1)(Cn1ccc2ccccc21)c1ccc(F)cc1 (centres unmarked); 166 to 167 °C

Now look at this one.
[Q] For the molecule Cc1c(C)n(CC(O)(Cn2cncn2)c2ccc(F)cc2F)c2ccccc12 (centres unmarked) [Compound 11j] , what melting point is on record?
[A] 102 to 103 °C

====

Listed here: items and their measured pIC50.
Target: retinoic acid 4-hydroxylase (CYP26A1) (Homo sapiens, UniProt O43174)
Construct: endogenous in cells
Sequence (O43174 1-497): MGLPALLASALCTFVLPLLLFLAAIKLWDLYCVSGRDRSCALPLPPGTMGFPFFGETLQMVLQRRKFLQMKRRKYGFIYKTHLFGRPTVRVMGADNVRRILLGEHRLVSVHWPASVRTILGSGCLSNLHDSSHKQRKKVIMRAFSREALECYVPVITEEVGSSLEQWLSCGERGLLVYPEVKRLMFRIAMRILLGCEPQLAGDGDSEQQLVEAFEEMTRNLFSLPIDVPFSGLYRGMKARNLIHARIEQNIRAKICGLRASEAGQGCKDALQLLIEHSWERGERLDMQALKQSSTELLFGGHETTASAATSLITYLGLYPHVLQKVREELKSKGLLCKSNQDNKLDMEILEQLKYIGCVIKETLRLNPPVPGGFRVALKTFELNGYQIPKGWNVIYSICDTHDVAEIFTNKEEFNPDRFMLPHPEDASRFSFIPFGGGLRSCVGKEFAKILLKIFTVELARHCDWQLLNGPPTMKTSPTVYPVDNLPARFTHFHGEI
Experiment: MCF-7 cellular assay for inhibition of metabolism of all-trans retinoic acid
Conditions: mean (±5%) of two experiments
Expect pIC50 as a plain number equal to -log10 of the molar concentration.

O[C@](Cn1cncn1)(Cn1ccc2ccccc21)c1ccc(Cl)cc1Cl [(−)-(S)-8g]; 4.74

[Q] For the compound O[C@@](Cn1cncn1)(Cn1ccc2ccccc21)c1ccc(Cl)cc1Cl [(+)-(R)-8g] , what pIC50 is on record?
[A] 4.47

====

Assay: MRC5 toxicity assay
Type: cell-based, human
Settings: human, MRC-5 human fetal lung fibroblast cells, MRC-5 cells, 96-h incubation, mean of triplicate; read-out: Cytotoxicity IC50 on MRC-5 cells
readout_kind: IC50 at 96 h (µM)
Respond numerically; units are µM and should not be typed.

OC(Cn1ccnc1)(Cn1ccc2ccccc21)c1ccc(Cl)cc1Cl (centres unmarked); 31
OC(Cn1ccnc1)(Cn1ccc2ccccc21)c1ccc(F)cc1F (centres unmarked); 34
OC(Cn1ccnc1)(Cn1ccc2ccccc21)c1ccc(Cl)cc1 (centres unmarked); 37

Now look at this one.
[Q] For the molecule O[C@](Cn1cncn1)(Cn1ccc2ccccc21)c1ccc(Cl)cc1Cl [(−)-(S)-8g] , what IC50 at 96 h is on record?
[A] 30
